Give insulin secretion stimulation for every item shown.
- test.summary: stimulators of insulin release from INS-1E, primary screen, cell-based, 5 mM glucose, NPC library (AID 1117329); note: reference of the scale not given here
- run.conditions: rat INS-1E insulin secretion, at 10 µM, hits give high values
Give bare numbers, in %.

COc1ccc2nc(S(=O)Cc3ncc(C)c(OC)c3C)[nH]c2c1 (configuration not stated); 0.4
CC(C)NCC(O)COc1ccc(CCOCC2CC2)cc1 (configuration not stated); -1.4
CS(=O)(=O)c1ccc([C@@H](O)[C@@H](CO)NC(=O)C(Cl)Cl)cc1; 1
CCN(CC)C(=O)N1CCN(C)CC1; -1.8
CCCCN(CCCC)CCC(O)c1cc2c(Cl)cc(Cl)cc2c2cc(C(F)(F)F)ccc12 (configuration not stated); 0.4

# return insulin secretion stimulation for each item in the list
1. Nc1ccc(S(=O)(=O)Nc2ccc(Cl)nn2)cc1
2. COCCCOc1cc(C[C@@H](C[C@H](N)[C@@H](O)C[C@H](C(=O)NCC(C)(C)C(N)=O)C(C)C)C(C)C)ccc1OC

1
0.9

# return insulin secretion stimulation for each item in the list
1. C[N+](C)(C)CCOC(N)=O
2. CC1(C)OC(=O)NC1=O
3. O=C1c2ccccc2C(=O)C1c1ccccc1
4. O=NN(CCCl)C(=O)NCCCl
5. CN(C)CCOC(=O)COc1ccc(Cl)cc1
6. CCCCN(CCCC)CCCOC(=O)c1ccc(N)cc1
7. CC1CCN(CCCC(=O)c2ccc(F)cc2)CC1

[-0.5, 0.6, -1.2, -0.1, 1.2, 0.7, 8.9]

# return insulin secretion stimulation for each item in the list
1. C=C[C@@]1(C)CC(=O)[C@]2(O)[C@@]3(C)[C@@H](O)CCC(C)(C)[C@@H]3[C@H](O)[C@H](OC(C)=O)[C@@]2(C)O1
2. Nc1ccc(S(=O)(=O)Nc2ccnn2-c2ccccc2)cc1

1. 3.6
2. -1.3
